Test system: ADCK4
Settings: Compound Concentration (nM):1000;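 note: KINOMEscan scanMAX binding as percent activity remaining versus control; lower means stronger binding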
Reported Percent Control by item:
experimental-readout: Percent Control (%)

compound: CC(C)COC(=O)c1ccc2c(c1)/C(=C/Nc1ccc(S(N)(=O)=O)cc1)C(=O)N2 [GW416981X]
experimental-readout: Percent Control
number: 100
--
compound: CCS(=O)(=O)c1ccc(OC)c(Nc2ncc(-c3cccc(F)c3)o2)c1 [GW621970X]
experimental-readout: Percent Control
number: 100
--
compound: COc1ccc2cc(-c3c(-c4ccncc4)nc(-c4ccc(S(C)(=O)=O)cc4C)n3C)ccc2c1
experimental-readout: Percent Control
number: 80

###

Reported Percent Control by item:
Tested on: SNRK
Conditions: Compound Concentration (nM):1000
experimental-readout: Percent Control (%)

molecule: COc1cc(/C=N/Nc2ncnc3[nH]ncc23)ccc1O [GW578748X]
number: 100
--
molecule: CCn1c(-c2nonc2N)nc2c(C#CC(C)(C)O)nc(OCCNC)cc21.Cl
number: 100
--
molecule: COc1ccccc1-c1cc(/C=C2\C(=O)Nc3ncc(Br)cc32)cc(Br)c1O [GW442130X]
number: 100
--
molecule: COc1ccc2[nH]c3c4[nH]c5ccc(OC)cc5c4c4c(c3c2c1)C(=O)NC4=O [GW296115X]
number: 56
--
molecule: CN(C)c1cc2c(Nc3ccc4c(cnn4Cc4ccccc4)c3)ncnc2cn1 [GW282974X]
number: 88
--
molecule: Cc1cc(O)cc(C)c1/C=C/c1cncc(C(N)=O)c1 [GW435821X]
number: 100
--
molecule: O=C1Nc2ccc(C(=O)c3ccco3)cc2C1=Cc1cc(Cl)c(O)c(Cl)c1 [GW406108X]
number: 100
--
molecule: COc1cc(N2CCN(C(C)C)CC2)ccc1Nc1nc(Nc2ccc(F)cc2C(=O)NC[C@@H](O)CO)c2cc[nH]c2n1 [GSK1392956A]
number: 87
--
molecule: CN(C)CCNC(=O)Nc1ccc(N(C)c2ccnc(Nc3ccc(CS(C)(=O)=O)cc3)n2)cc1.Cl [GW830900A]
number: 77
--
molecule: COc1cc(C=NNc2ncnc3c2cnn3-c2ccccc2)ccc1O [GW513184X]
number: 100
--
molecule: CC(C)COC(=O)c1ccc2c(c1)/C(=C/Nc1ccc(S(N)(=O)=O)cc1)C(=O)N2 [GW416981X]
number: 100
--
molecule: COC(=O)Nc1nc2ccc(Oc3ccc(NC(=O)Nc4cc(C(F)(F)F)ccc4F)cc3)cc2s1.Cl [GW693917A]
number: 100
--
molecule: O=C(Nc1n[nH]c2nc(-c3ccc(O)cc3)c(Br)cc12)C1CC1
number: 100
--
molecule: COc1cccc(-n2ncc3c(N/N=C/c4ccncc4)ncnc32)c1 [GW784752X]
number: 100
--
molecule: COc1ccc(COc2ccc(Cc3cnc(N)nc3N)cc2OC)cc1 [GW632580X]
number: 87

###

Reported Percent Control by item:
System: MEK4
Construct: gene MAP2K4
Details: Compound Concentration (nM):1000
experimental-readout: Percent Control

molecule: COc1ccc2cc(-c3c(-c4ccncc4)nc(-c4ccc(S(C)(=O)=O)cc4C)n3C)ccc2c1
experimental-readout: Percent Control
result: 72%
//
molecule: Cc1cc(O)cc(C)c1/C=C/c1cncc(C(N)=O)c1 [GW435821X]
experimental-readout: Percent Control
result: 100%
//
molecule: CCn1c(-c2nonc2N)nc2c(C#CC(C)(C)O)nc(OCCNC)cc21.Cl
experimental-readout: Percent Control
result: 100%
//
molecule: COc1cc2ncnc(Nc3ccc4c(cnn4Cc4ccccc4)c3)c2cc1OC.Cl [GW282449A]
experimental-readout: Percent Control
result: 100%
//
molecule: NS(=O)(=O)c1ccc(N/N=C2\C(=O)Nc3ccc(C(=O)NCCc4c[nH]cn4)cc32)cc1 [GW300660X]
experimental-readout: Percent Control
result: 100%
//
molecule: CC1=C(C(=O)Nc2ccc3[nH]ncc3c2)C(c2ccc(Cl)c(Cl)c2)CC(=O)N1 (stereo not shown) [GSK299115A]
experimental-readout: Percent Control
result: 89%
//
molecule: NS(=O)(=O)c1ccc(N/N=C2\C(=O)Nc3ccc(Cl)cc32)cc1 [GW280670X]
experimental-readout: Percent Control
result: 100%
//
molecule: CCc1ccc(Oc2nccc(-c3c(-c4ccc(F)cc4)ncn3C3CCNCC3)n2)cc1
experimental-readout: Percent Control
result: 100%
//
molecule: Cl.O=C(Nc1ccc(Oc2ccc3[nH]c(NC(=O)c4ccccc4)nc3c2)cc1)Nc1cc(C(F)(F)F)ccc1F [GW709042A]
experimental-readout: Percent Control
result: 100%
//
molecule: COc1ccc(COc2ccc(Cc3cnc(N)nc3N)cc2OC)cc1 [GW632580X]
experimental-readout: Percent Control
result: 100%
//
molecule: CN1CCN(C(=O)c2ccc(NC(=O)Nc3ccc(N(C)c4ccnc(Nc5ccc(CS(C)(=O)=O)cc5)n4)cc3)cc2)CC1.Cl [GW830263A]
experimental-readout: Percent Control
result: 6%
//
molecule: COc1cc2ncn(-c3cc(O[C@H](C)c4ccccc4Cl)c(C(N)=O)s3)c2cc1OC [GSK237701A]
experimental-readout: Percent Control
result: 91%
//
molecule: COc1ccc2c(-c3ccnc(Nc4cccc(OC(F)(F)F)c4)n3)cnn2n1 [GW810372X]
experimental-readout: Percent Control
result: 82%

###

Test system: LRRK2
Conditions: Compound Concentration (nM):1000

compound: NS(=O)(=O)c1ccc(N/N=C2\C(=O)Nc3ccc(C(=O)NCc4ccncc4)cc32)cc1 [GW300657X]
Percent Control: 69%
--
compound: CN1CCN(C(=O)c2ccc(NC(=O)Nc3ccc(N(C)c4ccnc(Nc5ccc(CS(C)(=O)=O)cc5)n4)cc3)cc2)CC1.Cl [GW830263A]
Percent Control: 74%
--
compound: COc1ccccc1-c1cc(/C=C2\C(=O)Nc3ncc(Br)cc32)cc(Br)c1O [GW442130X]
Percent Control: 100%
--
compound: CC1=C(C(=O)Nc2ccc3[nH]ncc3c2)C(c2ccc(Cl)c(Cl)c2)CC(=O)N1 (stereo not shown) [GSK299115A]
Percent Control: 96%

###

Reported Percent Control by item:
Test system: CAMKK1
Conditions: Compound Concentration (nM):1000
experimental-readout: Percent Control (%)

molecule: COc1ccc2c(-c3ccnc(Nc4cccc(OC(F)(F)F)c4)n3)cnn2n1 [GW810372X]
number: 91
--
molecule: COc1cccc(-c2c[nH]c3c(N/N=C/c4ccncc4)ncnc23)c1 [GW814408X]
number: 100
--
molecule: COc1cccc(-n2ncc3c(N/N=C/c4ccncc4)ncnc32)c1 [GW784752X]
number: 100
--
molecule: Cl.O=C(Nc1ccc(Oc2ccc3[nH]c(NC(=O)c4ccco4)nc3c2)cc1)Nc1cc(C(F)(F)F)ccc1F [GW683134A]
number: 100
--
molecule: Cl.O=S1CCN(Cc2ccc(-c3ccc4ncnc(Nc5ccc(OCc6ccccc6)c(F)c5)c4c3)o2)CC1 [GW576924A]
number: 100
--
molecule: COc1cc(/C=N/Nc2ncnc3[nH]ncc23)ccc1O [GW578748X]
number: 96

###

Test system: INSRR
Conditions: Compound Concentration (nM):1000

compound: COc1ccc(COc2ccc(Cc3cnc(N)nc3N)cc2OC)cc1 [GW632580X]
Percent Control: 100%
//
compound: C/C(Nc1ccc(S(N)(=O)=O)cc1)=C1/C(=O)Nc2ccccc21 [GW335962X]
Percent Control: 100%
//
compound: Cl.O=C(Nc1ccc(Oc2ccc3[nH]c(NC(=O)c4ccco4)nc3c2)cc1)Nc1cc(C(F)(F)F)ccc1F [GW683134A]
Percent Control: 100%
//
compound: Nc1ncnc2occ(-c3ccc(NC(=O)Nc4cc(C(F)(F)F)ccc4F)cc3)c12 [GW770249X]
Percent Control: 100%
//
compound: COc1cc(C=NNc2ncnc3c2cnn3-c2ccccc2)ccc1O [GW513184X]
Percent Control: 100%
//
compound: CC1=C(C(=O)Nc2ccc3[nH]ncc3c2)C(c2ccc(Cl)c(Cl)c2)CC(=O)N1 (centres unmarked) [GSK299115A]
Percent Control: 100%
//
compound: Cc1cc(O)cc(C)c1/C=C/c1cncc(C(N)=O)c1 [GW435821X]
Percent Control: 100%
//
compound: COc1cc(N2CCN(C(C)C)CC2)ccc1Nc1nc(Nc2ccc(F)cc2C(=O)NC[C@@H](O)CO)c2cc[nH]c2n1 [GSK1392956A]
Percent Control: 1.4%

###

Tested on: KIT(D816V)
Conditions: Compound Concentration (nM):1000

compound: COc1cc(C)c(N(C)C(=O)CN(C)C)cc1Nc1nc(Nc2cccc(F)c2C(N)=O)c2cc[nH]c2n1 [GSK2219385]
Percent Control: 81%

compound: O=C(Nc1n[nH]c2nc(-c3ccc(O)cc3)c(Br)cc12)C1CC1 [SB-725317]
Percent Control: 94%

compound: COC(=O)Nc1nc2ccc(Oc3ccc(NC(=O)Nc4cc(C(F)(F)F)ccc4F)cc3)cc2s1.Cl [GW693917A]
Percent Control: 61%

compound: Cl.c1ccc(Cc2nc3ccc(Nc4ncnc5ccccc45)cc3[nH]2)cc1 [GR269666A]
Percent Control: 100%

compound: NS(=O)(=O)c1ccc(N/N=C2\C(=O)Nc3ccc(C(=O)NCCc4c[nH]cn4)cc32)cc1 [GW300660X]
Percent Control: 94%

compound: CCc1ccc(Oc2nccc(-c3c(-c4ccc(F)cc4)ncn3C3CCNCC3)n2)cc1 [SB-242719]
Percent Control: 100%

compound: NS(=O)(=O)c1ccc(N/N=C2\C(=O)Nc3ccc(-c4cnco4)cc32)cc1 [GW276655]
Percent Control: 100%

compound: COc1ccc2c(-c3ccnc(Nc4cccc(OC(F)(F)F)c4)n3)cnn2n1 [GW810372X]
Percent Control: 87%

compound: NS(=O)(=O)c1ccc(N/N=C2\C(=O)Nc3ccc(C(=O)NCc4ccncc4)cc32)cc1 [GW300657X]
Percent Control: 61%
